So I've got a bunch of sequences here, and I need their protein stability index values.
assay: protein stability index of a GFP-peptide fusion (yeast GPS) (PSI 1-4); higher = more stable; sorted into four equal gates, so the index is relative within each strain; details: san1∆
Reply with just the number.

Return value of protein stability index for input NPMVPSSVNEDTFLPPP [PRP8] , no commentary.
3.01

Given FSMGHIRSSSVSLVAEA [MED4] , respond with its protein stability index.
1.31

Determine from records and report protein stability index for SPMGNAYSMGAQNQGGQ [PGD1]
2.91

Assign protein stability index to the following record: KAPNAVVITFEKEDHTL [RPB11]
2.19

Supply measured protein stability index of VVEGVTFVVEQLIKQSI [SNU114] in your reply.
3.44

Let me know recorded protein stability index for VFYAELNEFFTRELAEE [RPS3] , thanks.
3.26

Given ASEVATHSKLFADKKRD [PRP8] , respond with its protein stability index.
2.31

Complete the entry with protein stability index for AAPKKTRKAVRPQKLRA [RPL6B]
2.8

Supply protein stability index value. Item: VTFSPTGRLFQVEYALE [PRE5]
2.93

Please list protein stability index recorded for the sequence YIEEKHPTIYESLPQYV [POP4]
1.91

For the sequence EGYQNDINTIKLQLSFV [SRP72] , report protein stability index.
2.1

Please list protein stability index recorded for the sequence AHNKPSLFSKIKTFFTQ [YAR002W/NUP60]
2.66

Fill in reported protein stability index for this entry: VACLFITISIHGKPTKG [SSN8]
1.28

Please give the documented protein stability index of KKIFGTGKRLAKKVARR [RPS24A]
3.31
